Sequence of the target: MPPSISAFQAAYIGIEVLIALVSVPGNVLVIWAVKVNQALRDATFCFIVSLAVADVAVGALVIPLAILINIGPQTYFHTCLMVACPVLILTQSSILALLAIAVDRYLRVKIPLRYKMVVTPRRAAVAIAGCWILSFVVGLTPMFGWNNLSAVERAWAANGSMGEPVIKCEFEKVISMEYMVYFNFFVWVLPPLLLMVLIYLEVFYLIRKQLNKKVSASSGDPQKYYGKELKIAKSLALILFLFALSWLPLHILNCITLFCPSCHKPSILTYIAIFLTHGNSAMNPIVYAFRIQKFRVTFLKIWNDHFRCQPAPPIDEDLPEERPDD
METRIC_NAME: Ki (nM)

[A] Cc1cccc(-n2cc3c(n2)c(NC(=O)c2ccccc2)nc2ccccc23)c1
[B] CC(=O)Nc1nc2ccccc2c2cn(-c3cccc(C)c3)nc12
In: Between the entries labeled A and B , whose measured Ki is lower? # respond with the chosen item's label
Out: A
(A: 57 nM, B: 203 nM)

[1] O=c1[nH]c2ccccc2c2cn(-c3ccccc3)nc12
[2] COc1cccc(-n2cc3c(n2)c(N)nc2ccccc23)c1
In: Which numeric Ki is bigger, that of 1 or that of 2 ? # respond with the chosen item's label
Out: 1
